Cited source for all entries: PubChem BioAssay AID1963827

Tested on: 994946-033-R-J1-PDC complex spheroid viability;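 also: spheroids exposed to drugs for 7 days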
Test: Anticancer human tumor 994946-033-R-J1-PDC patient-derived melanoma cell line growth inhibition [POLQ]
Details: curve of first compound; second compound 0.1 µM
Attribute: IC50

Solved cases (2 shown):
Look up IC50: CCc1c2c(nc3ccc(O)cc13)-c1cc3c(c(=O)n1C2)COC(=O)[C@]3(O)CC + Nc1ccc(C#CCN(C(=O)Cc2ncc(C(F)(F)F)cc2C(F)(F)F)c2ccc(F)cc2)nn1
< 3.16 nM

// query: Cn1ncnc1[C@H]1c2n[nH]c(=O)c3cc(F)cc(c23)N[C@@H]1c1ccc(F)cc1 + Cc1cccc(N(C)C(=O)C2C(O)CCN2c2nc(C)cc(C(F)(F)F)c2C#N)c1
> 100 nM

Others:
Look up IC50: CCc1cc2c(N3CCc4c(cc(Cn5ccnc5)cc4-c4cn(C)nc4C(F)(F)F)C3=O)cc(C)nc2c(OC)n1 + Nc1ccc(C#CCN(C(=O)Cc2ncc(C(F)(F)F)cc2C(F)(F)F)c2ccc(F)cc2)nn1
> 10000 nM
